Task for the reader: assign each of the following compounds its reported plasma protein binding (% Bound).
# ASSAY DETAILS: Plasma protein binding, human
# Type: in vitro ADME
# STATED CONDITIONS: human, 1µM
Numbers only here, please. The scale is % Bound.

In: Dear colleague, I am looking for the recorded plasma protein binding (% Bound) of the following compound: COc1ccc(N2CCN(CCCNC(=O)Cn3c(=O)c4cccn4c4c(C)ccnc43)CC2)cc1
Out: 93.96

In: Check Clc1ccc(CSc2nnc(-c3ccccn3)n2Cc2ccco2)cc1Cl too.
Out: 99.75

In: # repeat for Cc1ccc(S(=O)(=O)NCc2ccc(C(=O)NCCN(Cc3ccccc3)C(C)C)cc2)cc1
Out: 99.67

In: Query O=C(c1ccccn1)N(Cc1cccs1)C1(C(=O)NC2CCCCC2)CCCCC1 next
Out: 99.59

// data source = paper PMC3378255
